Value source: the Deep4Chem optical property database

Let's look at some compounds and their measured photoluminescence quantum yield.
assay: photoluminescence quantum yield (fraction); solvent given as SMILES; conditions: in ClC(Cl)Cl
Give the figure only, with no unit attached.

Some compounds with known photoluminescence quantum yield results, for comparison:
                                   compound                    propertylabel  quantitativeresult
0  CCCCCCn1c2ccccc2c2cc(/C=C/c3cc(=O)oc4cc(C)ccc34)ccc21  photoluminescence quantum yield                0.38
1  FC(F)(F)c1ccc2oc3nc4oc5ccc(N6c7ccccc7Oc7ccccc76)cc5c4cc3c2c1  photoluminescence quantum yield               0.055
2  Cc1ccc(C#Cc2ccc(C#Cc3ccc(C#Cc4ccccc4C#N)cc3C#N)cc2C#N)cc1  photoluminescence quantum yield                0.96
3  CCCCCCC(CCCCCC)N1C(=O)c2cccc3c(-c4ccc(-c5ccc(OC)cc5)cc4)ccc(c23)C1=O  photoluminescence quantum yield                0.67
4  CCCCCCCCC1(CCCCCCCC)c2cc(C#CC#Cc3ccc(N(c4ccccc4)c4ccccc4)cc3)ccc2-c2ccc(C=O)cc21  photoluminescence quantum yield                0.09
5  C=Cc1ccc(-c2ccc(-c3nnc(-c4ccc(-c5nnc(-c6ccc(-c7ccc(C=C)cc7)s6)o5)cc4)o3)s2)cc1  photoluminescence quantum yield                0.62

Which value of photoluminescence quantum yield has been reported for `COC(=O)c1ccc(C2=C3C(C)=CC(C)=[N+]3[B-](F)(F)n3c(/C=C/c4c[nH]cn4)cc(C)c32)cc1` in the records?
0.93
